Reported protein stability index values are given for each entry in this list.
B1: DFFB (parent)
chain: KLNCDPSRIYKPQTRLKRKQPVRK

# Variants of: B1
# assay.comment: protein stability index of a GFP-peptide fusion (GPS, HEK-293T) (PSI 1-6); higher = more stable;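 also: lentivirally expressed fusions sorted by FACS into six bins by GFP to DsRed ratio, PSI derived from sequencing read proportions per bin multiplied by bin number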
# condition.info: c terminus: a fixed tail appended
Just the number, please, no unit after it.

mutation.notation: K11P
recorded.value: 3.15
--
mutation.notation: L16K
recorded.value: 3.07

Qu. Dear colleague, I am looking for the recorded protein stability index of the following variant: `K24M`
Ans. 3.11

Qu. Dear colleague, I am looking for the recorded protein stability index of the following variant: `K11R`
Ans. 3.53

Qu. Dear colleague, I am looking for the recorded protein stability index of the following variant: `Q13K`
Ans. 4.12

Qu. Dear colleague, I am looking for the recorded protein stability index of the following variant: `L2M`
Ans. 4.09

Qu. Dear colleague, I am looking for the recorded protein stability index of the following variant: `K19L`
Ans. 3.14

Qu. Dear colleague, I am looking for the recorded protein stability index of the following variant: `P12M`
Ans. 3.31

Qu. Dear colleague, I am looking for the recorded protein stability index of the following variant: `P12I`
Ans. 2.85

Qu. Dear colleague, I am looking for the recorded protein stability index of the following variant: `L16N`
Ans. 3.85

Qu. Dear colleague, I am looking for the recorded protein stability index of the following variant: `N3S`
Ans. 4.17
